These data points were gathered from ChEMBL document CHEMBL2331334.

test system: Trypanosoma cruzi; test: Trypanosomicidal activity against axenic epimastigote stage of Trypanosoma cruzi Tulahuen 2 assessed as growth inhibition; format: functional, organism-based
pIC50: −log10 of the molar value.
Value kind: pIC50

>>> df
                                   compound  value_kind  result
0  NNC(=O)c1cccnc1 [NICOTINIC ACID HYDRAZIDE]       pIC50  < 3.82
1  Cc1c(C(=O)N/N=C/c2ccc(C(F)(F)F)cc2)no[n+]1[O-]       pIC50  < 3.82
2  O=C(N/N=C/c1ccc2no[n+]([O-])c2c1)c1ccncc1       pIC50    4.48
3          O=C(N/N=C/c1ccc2nonc2c1)c1cccnc1       pIC50  < 3.82
4  O=C(N/N=C/c1c(-c2ccccc2)no[n+]1[O-])c1cnn(-c2ccccc2)c1       pIC50  < 3.82
5                  Cc1c(C(=O)NN)no[n+]1[O-]       pIC50  < 4.30
6   Cc1c(C(=O)N/N=C/c2cccc(O)c2)no[n+]1[O-]       pIC50  < 3.82
7  Cc1nc2ccccn2c1C(=O)N/N=C/c1ccc2no[n+]([O-])c2c1       pIC50  < 3.82
